target: 16S ribosomal RNA fragment (27mer RNA, SEQ ID NO:1); test: ESI-MS titration of 2-DOS against 16S, polynomial fit for dissociation constants; format: binding, bacterial; conditions: 4th order polynomial fit; 100 mM ammonium acetate buffer; read-out: KD of (2-DOS)2:16S complex (second 2-DOS)
pKd: −log10 of the molar value.
quantityName: pKd

{"columns": ["molecule", "valueReported"],
 "data": [
  ["N[C@@H]1C[C@H](N)[C@@H](O)C(O)[C@H]1O (stereo partly shown)", 2.85]
]}

----------
biological target: 16S ribosomal RNA fragment (27mer RNA, SEQ ID NO:1); experiment: ESI-MS titration of 2-DOS against 16S, polynomial fit for dissociation constants; format: binding, bacterial; conditions: 4th order polynomial fit; 100 mM ammonium acetate buffer; read-out: KD of (2-DOS)3:16S complex (third 2-DOS)

{"columns": ["molecule", "readoutUnits", "Kd"],
 "data": [
  ["N[C@@H]1C[C@H](N)[C@@H](O)C(O)[C@H]1O (stereo partly shown)", "mM", 4]
]}
